# Tested Target: T1, MAGE-A1 peptide on HLA-A*02:01 (human)
# T1 peptide: KVLEYVIKV
# Method: JKR9 reporter + peptide-loaded T2, 16 h; full-length, on cells
The entries below are paired with their reported log10 EC50 of peptide.
// stored as log10 of EC50 of peptide expressed in nM

Form: binder = ht27M1360 (TCR, V domains shown) Valpha: GEDVEQSLFLSVREGDSSVINCTYTDSSSTYLYWYKQEPGAGLQLLTYIFGFDTMKQDQRLTVLLNKKDKHLSLRIADTQTGDSAIYFCAGSGGGTDKLIFGTGTRLQVFP Vbeta: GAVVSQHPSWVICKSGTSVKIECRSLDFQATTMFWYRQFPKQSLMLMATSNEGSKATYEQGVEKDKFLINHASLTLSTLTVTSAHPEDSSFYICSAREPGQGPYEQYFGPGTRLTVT ; log10 EC50 of peptide = 1.78

Quick note, log10 EC50 of peptide for ht27M1012 (TCR, V domains shown) Valpha: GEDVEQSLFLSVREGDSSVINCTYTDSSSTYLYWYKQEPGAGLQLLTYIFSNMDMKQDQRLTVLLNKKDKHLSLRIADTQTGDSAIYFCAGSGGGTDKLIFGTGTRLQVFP Vbeta: GAVVSQHPSWVICKSGTSVKIECRSLDFQATTMFWYRQFPKQSLMLMATSNEGSKATYEQGVEKDKFLINHASLTLSTLTVTSAHPEDSSFYICSAREPGGGPFEQYFGPGTRLTVT landed at 1.42

Entry ht27M1365 (TCR, V domains shown) Valpha: GEDVEQSLFLSVREGDSSVINCTYTDSSSTYLYWYKQEPGAGLQLLTYIFSFTYMKQDQRLTVLLNKKDKHLSLRIADTQTGDSAIYFCAGSGGGTDKLIFGTGTRLQVFP Vbeta: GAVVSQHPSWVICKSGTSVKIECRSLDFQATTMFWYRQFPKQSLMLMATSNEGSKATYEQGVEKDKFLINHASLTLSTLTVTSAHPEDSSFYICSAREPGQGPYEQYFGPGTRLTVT — recorded log10 EC50 of peptide = 2.00

Data point: ht27M1369 (TCR, V domains shown) Valpha: GEDVEQSLFLSVREGDSSVINCTYTDSSSTYLYWYKQEPGAGLQLLTYIFAFESMKQDQRLTVLLNKKDKHLSLRIADTQTGDSAIYFCAGSGGGTDKLIFGTGTRLQVFP Vbeta: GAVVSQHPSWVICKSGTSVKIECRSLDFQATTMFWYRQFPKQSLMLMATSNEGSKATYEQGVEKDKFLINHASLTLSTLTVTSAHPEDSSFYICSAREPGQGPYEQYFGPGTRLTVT ; log10 EC50 of peptide = 1.88
